The reported measurements were obtained from BindingDB's records for doi:10.7270/Q2RB7351.

# Target Or System: Glutamine--fructose-6-phosphate aminotransferase [isomerizing] (Candida albicans (strain SC5314 / ATCC MYA-2876))
# Protocol Text: Enzyme Assay
# Test Conditions: pH 6.85
Please respond with reported pIC50 for every item in the list.
Numbers only, as −log10 of the molar value.

COC(=O)C(N)CCP(=O)(OC)N(C)C (centres undefined)	2.36
COC(=O)C(N)CCP(=O)(O)OC (centres undefined)	2.59
N[C@@H](CCP(=O)(O)O)C(=O)O	1.59
CCNP(=O)(CCC(N)C(=O)OC)OC (centres undefined)	2.11
CCN(CC)S(=O)(=O)CCC(N)C(=O)OC (racemic)	2.80
CO[P@@](=O)(O)CC[C@H](N)C(=O)O	2.70
COC(=O)C(N)CCS(N)(=O)=O (racemic)	2.26
COC(=O)C(N)CCP(N)(=O)OC (centres undefined)	1.60

Batch request: pIC50 for each of the following molecules.
1. COC(=O)C(N)CCS(C)(=N)=O (centres undefined)
2. CCN(CC)P(=O)(CCC(N)C(=O)OC)OC (centres undefined)

[2.55, 2.44]

* * *

# Target Or System: Glutamine--fructose-6-phosphate aminotransferase [isomerizing] (Candida albicans (strain SC5314 / ATCC MYA-2876), UniProt P53704)
# Sequence (P53704 whole entry): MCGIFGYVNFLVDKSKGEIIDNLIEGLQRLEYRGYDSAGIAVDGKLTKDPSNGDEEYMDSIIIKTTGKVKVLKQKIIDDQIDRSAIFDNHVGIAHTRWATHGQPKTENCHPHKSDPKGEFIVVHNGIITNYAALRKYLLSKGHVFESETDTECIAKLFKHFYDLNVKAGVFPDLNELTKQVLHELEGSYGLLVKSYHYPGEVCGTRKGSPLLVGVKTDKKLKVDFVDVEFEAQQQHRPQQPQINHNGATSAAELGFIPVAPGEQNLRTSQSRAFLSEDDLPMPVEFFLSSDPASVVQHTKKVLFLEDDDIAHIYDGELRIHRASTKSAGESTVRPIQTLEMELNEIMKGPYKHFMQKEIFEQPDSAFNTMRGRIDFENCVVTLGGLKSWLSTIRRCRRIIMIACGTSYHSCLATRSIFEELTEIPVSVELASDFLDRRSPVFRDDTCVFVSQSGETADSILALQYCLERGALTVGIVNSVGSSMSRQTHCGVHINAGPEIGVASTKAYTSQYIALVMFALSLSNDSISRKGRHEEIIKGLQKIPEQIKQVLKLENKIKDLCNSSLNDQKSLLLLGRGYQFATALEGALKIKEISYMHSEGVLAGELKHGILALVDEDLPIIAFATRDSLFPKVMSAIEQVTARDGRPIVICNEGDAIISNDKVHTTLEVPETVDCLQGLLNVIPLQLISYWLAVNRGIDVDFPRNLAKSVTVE
# Protocol Text: Enzyme Assay
# Test Conditions: pH 6.85
Please respond with reported pKi for every item in the list.
One number for each entry, as −log10 of the molar value.

Worked examples follow.
N[C@@H](CCP(=O)(O)O)C(=O)O	1.92
COC(=O)C(N)CCS(C)(=N)=O (stereo not given)	2.82
COC(=O)C(N)CCP(=O)(OC)N(C)C (stereo not given)	2.89
COC(=O)C(N)CCP(=O)(O)OC (stereo not given)	2.92
CCN(CC)P(=O)(CCC(N)C(=O)OC)OC (stereo not given)	3.03
COC(=O)C(N)CCS(N)(=O)=O (racemic)	2.55
CCNP(=O)(CCC(N)C(=O)OC)OC (stereo not given)	2.36
COC(=O)C(N)CCP(N)(=O)OC (stereo not given)	1.96
CCN(CC)S(=O)(=O)CCC(N)C(=O)OC (racemic)	3.22

Let us move to another entry and its pKi.
If you can, please state the reported pKi value of "CO[P@@](=O)(O)CC[C@H](N)C(=O)O" .
3.05
